Experiment: Plasma pharmacokinetics after intraperitoneal injection in mouse (UPLC-MS/MS)
Assay type: in vivo
Conditions: mouse plasma, prototype drug, IP 10 mg/kg
Procedure: Positive control drug 4-butyl-α-agarofuran preparation (BAF) and Compound 2 preparation were administered intraperitoneally at a dose of 10 mg/kg/10 ml (calculated according to the crude drug), and a suspension was prepared by ultrasonic grinding with double distilled water. Male ICR mice, with a weight of 21-24 g, were purchased from SPF (Beijing) Biotechnology Co., Ltd. […]
METRIC_NAME: AUClast/D (kg·ng·h/mL/mg)

A = CC1(C)O[C@]23C[C@H]1CC[C@]2(C)CCC=C3CCCC(F)(F)F [Compound 2]
B = CCCCC1=CCC[C@@]2(C)CC[C@@H]3C[C@]12OC3(C)C [BAF, 4-butyl-α-agarofuran, reference compound]
Field: entry with larger AUClast/D (options A / B ). Lab log: write the label of the selected item as the result. A
(A: 19 kg·ng·h/mL/mg, B: 12.9 kg·ng·h/mL/mg)

----------
Assay: Plasma pharmacokinetics after intraperitoneal injection in mouse (UPLC-MS/MS)
Type: in vivo
Conditions: male, ICR; mouse plasma, prototype drug, IP 10 mg/kg; read-out: AUClast
METRIC_NAME: AUC(0-t) (ng·h/mL)

I = CCCCC1=CCC[C@@]2(C)CC[C@@H]3C[C@]12OC3(C)C [BAF, 4-butyl-α-agarofuran, reference compound]
II = CC1(C)O[C@]23C[C@H]1CC[C@]2(C)CCC=C3CCCC(F)(F)F
# min-compare on AUC(0-t) between I and II Lab log: write the label of the selected item as the result. I

----------
Assay: Plasma pharmacokinetics after intraperitoneal injection in mouse (UPLC-MS/MS)
Format: in vivo
Details: male, ICR, mouse, plasma, ip, 10 mg/kg, IP 10 mg/kg, 0.25 h; read-out: Plasma concentration, Mean
METRIC_NAME: concentration at 0.25 h (ng/mL)

| MOLECULE | METRIC_NAME | UNIT_TEXT | MEASURED |
| --- | --- | --- | --- |
| CCCCC1=CCC[C@@]2(C)CC[C@@H]3C[C@]12OC3(C)C [BAF, 4-butyl-α-agarofuran, reference compound] | concentration at 0.25 h | ng/mL | 196 |
| CC1(C)O[C@]23C[C@H]1CC[C@]2(C)CCC=C3CCCC(F)(F)F | concentration at 0.25 h | ng/mL | 195 |

----------
Experiment: Plasma pharmacokinetics after intraperitoneal injection in mouse (UPLC-MS/MS)
Format: in vivo
Settings: male, ICR, mouse, plasma, ip, 10 mg/kg, IP 10 mg/kg, 6 h; read-out: Plasma concentration, individual mice 1-3
METRIC_NAME: concentration at 6 h (ng/mL)
The answer is to be given in ng/mL; state only the numeric part.

// CC1(C)O[C@]23C[C@H]1CC[C@]2(C)CCC=C3CCCC(F)(F)F : concentration at 6 h value = 3.69

----------
Assay: Plasma pharmacokinetics after intraperitoneal injection in mouse (UPLC-MS/MS)
Assay type: in vivo
Details: male, ICR, mouse, plasma, ip, 10 mg/kg, IP 10 mg/kg, 0.5 h; read-out: Plasma concentration, individual mice 1-3
METRIC_NAME: concentration at 0.5 h (ng/mL)

A = CCCCC1=CCC[C@@]2(C)CC[C@@H]3C[C@]12OC3(C)C [BAF, 4-butyl-α-agarofuran, reference compound]
B = CC1(C)O[C@]23C[C@H]1CC[C@]2(C)CCC=C3CCCC(F)(F)F [Compound 2]
Field: entry with larger concentration at 0.5 h (options A / B ). Lab log: write the label of the selected item as the result. B

These data points were gathered from patent US20230391741A1.
